pIC50: −log10 of the molar value.
Before we begin, note that these pIC50 values for Epidermal growth factor receptor (Homo sapiens) originate from several publications.
assay_metric: pIC50

>  <compound>
COc1cc2nc(-c3ccc(-c4ccco4)cc3)cc(OCCCN3CCN(C)CC3)c2cc1OC

>  <pIC50>
6.46

$$$$
>  <compound>
Nc1cc(-c2c[nH]c3ccccc23)nn1-c1nc(Nc2ccc(Br)cc2)nc(N2CCOCC2)n1

>  <pIC50>
7.16

$$$$

(P) COc1cc2nc(-c3ccc(C)cc3)cc(OCCCNC3CCCCC3)c2cc1OC
(Q) CN(C)C/C=C/C(=O)Nc1ccc2ncc(NC(=O)Nc3ccccc3)nc2c1
(R) CC(=O)c1cccc(/N=N/c2ccc(O)c(C(=O)O)c2)c1
(S) O=C1CCC(N2C(=O)c3cccc(NC(=O)COCCOCCNNC(=O)c4ccc(N=C5C(=O)Nc6ccccc65)cc4)c3C2=O)C(=O)N1 (centres unmarked)
(T) C=CC(=O)N1CCC[C@@H](n2nc(-c3ccc(Oc4ccccc4)cc3C)c3c(N)ncnc32)C1
Exam item: list the entries in increasing order of pIC50. Rank the items, then write their labels in that order.
R, S, T, Q, P
